- assayed_system: T1, IRF4 DBD K59N (Homo sapiens, UniProt Q15306 20-132, K59N)
- T1 sequence: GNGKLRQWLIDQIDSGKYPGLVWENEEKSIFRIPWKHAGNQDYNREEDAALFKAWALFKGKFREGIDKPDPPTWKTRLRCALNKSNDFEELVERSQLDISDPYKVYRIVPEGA
- test_details: SPR two-state kinetic; FP: PBS + 0.05% Tween20, 5 nM DNA, 1 h, room temperature; SPR: Biacore S200, SA chip, protein 0.1-4500 nM, running buffer not given in material; errors are SD
- measurement_setup: protein: recombinant; tags: N-terminal His8-linker-His8-TEV, cleaved; label: 3' biotin; hairpin, TTTT loop
pKd: −log10 of the molar value.
measured_metric: pKd

binder="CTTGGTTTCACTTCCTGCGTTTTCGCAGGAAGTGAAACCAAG (structured_DNA) [IRE hairpin (biotin)]" quantitative_result=6.97
